method.description: Induction of hemolysis in human RBC at 200 uM incubated for 1 hr
Type: cell-based, Erythrocyte
run.conditions: red blood cells, read-out: Activity
measured.quantity: hemolysis at 1 h, 200 µM (%)

>  <smiles.input>
Oc1c(Br)cc(I)c2nc3cc(Cl)c(Cl)cc3nc12

>  <measured.quantity>
hemolysis at 1 h, 200 µM

>  <censoring.operator>
=

>  <number>
2.7

$$$$
>  <smiles.input>
Oc1c(Br)cc(I)c2nc3ccccc3nc12

>  <measured.quantity>
hemolysis at 1 h, 200 µM

>  <censoring.operator>
=

>  <number>
2.9

$$$$
>  <smiles.input>
Oc1c(Br)cc(Cl)c2nc3ccccc3nc12

>  <measured.quantity>
hemolysis at 1 h, 200 µM

>  <censoring.operator>
≤

>  <number>
1

$$$$
>  <smiles.input>
Oc1ccc(I)c2nc3cc(Cl)c(Cl)cc3nc12

>  <measured.quantity>
hemolysis at 1 h, 200 µM

>  <censoring.operator>
=

>  <number>
1.4

$$$$
>  <smiles.input>
Oc1c(I)cc(I)c2nc3ccccc3nc12

>  <measured.quantity>
hemolysis at 1 h, 200 µM

>  <censoring.operator>
≤

>  <number>
1

$$$$
>  <smiles.input>
Oc1c(Br)cc(Br)c2nc3ccc(Br)cc3nc12

>  <measured.quantity>
hemolysis at 1 h, 200 µM

>  <censoring.operator>
=

>  <number>
2.1

$$$$
>  <smiles.input>
CCCCc1cc(Br)c(O)c2nc3ccccc3nc12

>  <measured.quantity>
hemolysis at 1 h, 200 µM

>  <censoring.operator>
=

>  <number>
11.5

$$$$

---

Measured hemolysis at 1 h, 200 µM values are reported for all entries that follow.
method.description: Induction of hemolysis in human RBC at 200 uM incubated for 1 hr
Format: cell-based, Erythrocyte
run.conditions: red blood cells, read-out: Activity

>  <smiles.input>
Oc1c(Cl)cc(Br)c2nc3cc(Br)c(Br)cc3nc12

>  <censoring.operator>
=

>  <hemolysis at 1 h, 200 µM, %>
2.1

$$$$
>  <smiles.input>
CC(=O)NC[C@H]1CN(c2ccc(N3CCOCC3)c(F)c2)C(=O)O1

>  <censoring.operator>
≤

>  <hemolysis at 1 h, 200 µM, %>
1

$$$$
>  <smiles.input>
CN[C@@H](CC(C)C)C(=O)N[C@H]1C(=O)N[C@@H](CC(N)=O)C(=O)N[C@H]2C(=O)N[C@H]3C(=O)N[C@H](C(=O)N[C@@H](C(=O)O)c4cc(O)cc(O)c4-c4cc3ccc4O)[C@H](O)c3ccc(c(Cl)c3)Oc3cc2cc(c3O[C@H]2O[C@@H](CO)[C@H](O)[C@@H](O)[C@@H]2O[C@@H]2C[C@@](C)(N)[C@@H](O)[C@@H](C)O2)Oc2ccc(cc2Cl)[C@H]1O

>  <censoring.operator>
≤

>  <hemolysis at 1 h, 200 µM, %>
1

$$$$
>  <smiles.input>
Cc1nc2c(I)cc(I)c(O)c2nc1C

>  <censoring.operator>
=

>  <hemolysis at 1 h, 200 µM, %>
1.2

$$$$
>  <smiles.input>
Oc1c(I)cc(Cl)c2nc3ccccc3nc12

>  <censoring.operator>
≤

>  <hemolysis at 1 h, 200 µM, %>
1

$$$$
>  <smiles.input>
Oc1ccc(Br)c2nc3cc(Cl)c(Cl)cc3nc12

>  <censoring.operator>
=

>  <hemolysis at 1 h, 200 µM, %>
2.7

$$$$
>  <smiles.input>
CCCCCCCCCC(=O)N[C@@H](Cc1c[nH]c2ccccc12)C(=O)N[C@H](CC(N)=O)C(=O)N[C@@H](CC(=O)O)C(=O)N[C@@H]1C(=O)NCC(=O)N[C@@H](CCCN)C(=O)N[C@@H](CC(=O)O)C(=O)N[C@H](C)C(=O)N[C@@H](CC(=O)O)C(=O)NCC(=O)N[C@H](CO)C(=O)N[C@@H]([C@H](C)CC(=O)O)C(=O)N[C@@H](CC(=O)c2ccccc2N)C(=O)O[C@@H]1C

>  <censoring.operator>
=

>  <hemolysis at 1 h, 200 µM, %>
1.7

$$$$
